Reference source: patent US20260116991A1

Target: biotinylated labeled human GPC3 protein (produced in-house) (human, UniProt P51654 25-559, limits assumed, biotinylated (Dojindo, Cat. No. LK03); sites not stated)
Experiment: ELISA, biotinylated human GPC3 protein
Classify: label 1 when OD450 at 0.53 nM is strictly less than 2 OD450; label 0 when OD450 at 0.53 nM is not.

>  <BINDER>
hAb007LH1L1 (antibody, human IgG1, V domains shown, Humanized F3.81.19; VH H1 + VL L1; expressed as human IgG1) VH: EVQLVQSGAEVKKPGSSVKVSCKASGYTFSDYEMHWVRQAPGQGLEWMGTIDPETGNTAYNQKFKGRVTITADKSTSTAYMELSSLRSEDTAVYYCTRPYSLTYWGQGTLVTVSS VL: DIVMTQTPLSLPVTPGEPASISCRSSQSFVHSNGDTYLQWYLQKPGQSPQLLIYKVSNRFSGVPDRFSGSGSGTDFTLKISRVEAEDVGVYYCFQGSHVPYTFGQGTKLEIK

>  <QUALITATIVE_LABEL>
label 0

$$$$
>  <BINDER>
hAb006LH2L1a (antibody, human IgG1, V domains shown, Humanized F3.38.7; VH H2 + VL L1a; expressed as human IgG1) VH: EVQLVQSGAEVKKPGSSVKVSCKASGYTFTDYEIHWVRQAPGQGLEWMGAIDPKTGNTAYNQKFMGRVTITADKSTSTAYMELSSLRSEDTAVYYCTRYFSFAYWGQGTLVTVSS VL: DIVMTQTPLSLPVTPGEPASISCRSSQTFVHSDGNTYLQWYLQKPGQSPQLLIYKVSNRFSGVPDRFSGSGSGTDFTLKISRVEAEDVGVYYCFQGSHVPYTFGQGTKLEIK

>  <QUALITATIVE_LABEL>
label 1

$$$$
>  <BINDER>
hAb001H1aL1 (antibody, human IgG1, V domains shown, Humanized F2.169.2; VH H1a + VL L1; expressed as human IgG1) VH: EVQLVESGGGLVQPGGSLRLSCAASGFSFNTNAMNWVRQAPGKGLEWVGRIRSKSNNYATYYADSVKGRFTISRDDSKNSLYLQMNSLKTEDTAVYYCVRDGYYVLFAYWGQGTLVTVSS VL: DIVMTQTPLSLPVTPGEPASISCRFSQSIVNSNGNTYLEWFLQKPGQSPQLLIYKVSNRFSGVPDRFSGSGSGTDFTLKISRVEAEDVGVYYCFQGSHVPFTFGQGTKLEIK

>  <QUALITATIVE_LABEL>
label 0

$$$$
>  <BINDER>
hAb001H1aL1b (antibody, human IgG1, V domains shown, Humanized F2.169.2; VH H1a + VL L1b; expressed as human IgG1) VH: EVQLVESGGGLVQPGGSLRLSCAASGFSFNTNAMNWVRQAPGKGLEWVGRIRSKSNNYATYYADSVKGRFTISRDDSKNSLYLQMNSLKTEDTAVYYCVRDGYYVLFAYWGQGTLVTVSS VL: DIVMTQTPLSLPVTPGEPASISCRFSQSIVNSNANTYLEWFLQKPGQSPQLLIYKVSNRFSGVPDRFSGSGSGTDFTLKISRVEAEDVGVYYCFQGSHVPFTFGQGTKLEIK

>  <QUALITATIVE_LABEL>
label 0

$$$$
>  <BINDER>
hAb003LH2L1a (antibody, human IgG1, V domains shown, Humanized F2.154.1; VH H2 + VL L1a; expressed as human IgG1) VH: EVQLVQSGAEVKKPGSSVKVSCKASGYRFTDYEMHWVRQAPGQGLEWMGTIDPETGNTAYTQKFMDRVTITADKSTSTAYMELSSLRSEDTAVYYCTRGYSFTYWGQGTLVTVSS VL: DIVMTQTPLSLPVTPGEPASISCRSSQNIVHSDGNTYLQWYLQKPGQSPQLLIFKVSNRFSGVPDRFSGSGSGTDFTLKISRVEAEDVGVYYCFQGSHVPFTFGQGTKLEIK

>  <QUALITATIVE_LABEL>
label 1

$$$$
